- Tested on: SF-539 CNS
- method_notes: NCI-60 one-dose screen, 48 h (100 = growth as untreated, 0 = no growth, -100 = all killed)
- protocol_conditions: 10 µM unless noted
- Procedure: Cells are grown in 96 well plates and exposed to the test compound for 48 hours. Compounds are tested at a single concentration, which is 10^-5 M for most compounds. The reported endpoint is percent growth (GI% or GIPRCNT), where numbers from 0 - 100% represent growth inhibition, and numbers from -100% - 0 represent cell death. For example, a value of 40 represents 60% growth inhibition. A value of 0 means no net growth occurred over the course of the experiment. […]
This is part of a sample that, as a whole, favours compounds with a hit. Of some 83,000 tested, about 20% had one in any assay.
value_kind: growth (%)
# value in %; strip the unit string

// query Report the value of growth obtained on SF-539 CNS for `O=C(/C=C/c1cccc(Cl)c1)c1cccc(OCCCCOc2cccc(C(=O)/C=C/c3cccc(Cl)c3)c2)c1` .
// result 96.6

// query Report the value of growth obtained on SF-539 CNS for COc1ccc(C2CC(c3ccc4c(c3)OCO4)=Nc3c(N)ncnc3N2)cc1 (stereo not given) .
// result 110

// query Report the value of growth obtained on SF-539 CNS for `O=C1Nc2ccc(F)cc2/C1=N/c1nnc(Sc2ccccc2)s1` .
// result 88.5

// query Report the value of growth obtained on SF-539 CNS for `CCOC(=O)Cn1c(=O)c2c3ccccc3n(C)c2n2nnc(-c3ccccc3)c12` .
// result 91.1

// query Report the value of growth obtained on SF-539 CNS for `COC(=O)c1c2c(n3ccc(C)cc13)C(=O)c1ccccc1C2=O` .
// result 94.8

// query Report the value of growth obtained on SF-539 CNS for `CC(=O)c1cc(-c2ccccc2N)n(-c2ccc3c(c2)OCO3)c1C` .
// result -0.915

// query Report the value of growth obtained on SF-539 CNS for COc1cc(C2Cc3ncccc3-c3[nH]c(=O)c4cccnc4c32)cc(OC)c1OC (stereo not given) .
// result -18.8

// query Report the value of growth obtained on SF-539 CNS for `C=C(c1ccc(C(=O)O)cn1)c1cc2c(cc1C)C(C)(C)CCC2(C)C` .
// result 86.3

// query Report the value of growth obtained on SF-539 CNS for `Cc1cc(N2CCCCC2)nc(N2CCN(CC(=O)Nc3ccc4c(ccn4Cc4ccccc4)c3)CC2)n1` .
// result 80.3

// query Report the value of growth obtained on SF-539 CNS for O=C1CC2C=CCN2C=C1NC(=O)C1CCCCC1 (stereo not given) .
// result 98.4

// query Report the value of growth obtained on SF-539 CNS for C=CC1(C)C(O[Si](C)(C)C(C)(C)C)CC2C3OC(=O)NC31c1cccc3c1[C@H](C(=O)N3C)C2(C)C (stereo not given in full) .
// result 65.4

// query Report the value of growth obtained on SF-539 CNS for `CCOC(=O)C(=Cc1cccc(C#N)c1)C(=O)OCC` .
// result 62.9

// query Report the value of growth obtained on SF-539 CNS for `COCC[C@H]1CCC/C=C/[C@@H]2C[C@H](O)C[C@H]2[C@H](O)/C=C/C(=O)O1` .
// result 28.3

// query Report the value of growth obtained on SF-539 CNS for COC(=O)C1=C(C)NC(C)=C(C(=O)OCC(C)C)C1c1ccccc1[N+](=O)[O-] (stereo not given) .
// result 65.6

// query Report the value of growth obtained on SF-539 CNS for `CN1CCN(Cc2ccc(NC(=O)c3cncc(C#Cc4cncc5ncccc45)c3)cc2C(F)(F)F)CC1` .
// result -31.8

// query Report the value of growth obtained on SF-539 CNS for `Fc1ccc(CNc2c3ccccc3nc3ccccc23)cc1` .
// result 13.1

// query Report the value of growth obtained on SF-539 CNS for `COc1ccc(C2=Nc3c/c(=C\c4c(O)[nH]c5cc(Cl)ccc45)ccc3=N2)cc1` .
// result 64.8

// query Report the value of growth obtained on SF-539 CNS for `O=C(CSc1nc2ccc([N+](=O)[O-])cc2[nH]1)Nc1ccc(Br)cc1` .
// result 70.5

// query Report the value of growth obtained on SF-539 CNS for `CC1(C)OC(=O)C(=Cc2cccc(Br)c2)C(=O)O1` .
// result 108

// query Report the value of growth obtained on SF-539 CNS for `Cc1ccc(/C=C2\CN(C(=O)C(Cl)Cl)C/C(=C\c3ccc(C)cc3)C2=O)cc1` .
// result -86.4

// query Report the value of growth obtained on SF-539 CNS for `COc1ccc2cc(-c3cnc4nonc4n3)ccc2c1` .
// result -16

// query Report the value of growth obtained on SF-539 CNS for `COc1cc2c(cc1O)[C@@]1(C)[C@H](c3ccccc3Br)OC(=O)N1CC2` .
// result 95.1

// query Report the value of growth obtained on SF-539 CNS for `O=C(c1ccc(F)c(Cl)c1)N1c2ccccc2Sc2ccccc21` .
// result 62.3

// query Report the value of growth obtained on SF-539 CNS for `COc1ccccc1-n1c(-c2cc(O)ccc2C)cn2c3c(=O)[nH]c(=O)n(C)c3nc12` .
// result 72.6

// query Report the value of growth obtained on SF-539 CNS for `N=c1c2c(=N)n3c(nc2nc2n1-c1ccccc1Sc1ccccc1-2)sc1cc(Cl)ccc13` .
// result 55.4

// query Report the value of growth obtained on SF-539 CNS for `COc1cc2cc(NCc3ccc(OC(F)F)cc3)nc(C)c2cc1OC` .
// result 69.1

// query Report the value of growth obtained on SF-539 CNS for `CC[C@@H](c1ccc2cc(OC)ccc2c1)C(C)(C)C(=O)F` .
// result 103

// query Report the value of growth obtained on SF-539 CNS for `COc1cc(/C=C/c2cc(/C=C/c3ccc(O)c(OC)c3)n(C(=O)Nc3ccc(F)cc3)n2)ccc1O` .
// result 3.68

// query Report the value of growth obtained on SF-539 CNS for CC(O)c1ncc(/C=C2\SC(=S)N(Cc3ccccc3)C2=O)s1 (stereo not given) .
// result 85

// query Report the value of growth obtained on SF-539 CNS for `COc1ccc(-c2cc(-c3ccc(OC)cc3)nc(NCCCNc3ccnc4cc(Cl)ccc34)n2)cc1` .
// result 63.4

// query Report the value of growth obtained on SF-539 CNS for CC(C)CCC[C@@H](C)C1CCC2C3CCC4=C/C(=N/OCCN(C)C)CC[C@]4(C)C3CC[C@@]21C (stereo not given in full) .
// result 93.2

// query Report the value of growth obtained on SF-539 CNS for `CCOc1ccc(NC(=O)c2cc(OC)c(OC)c(OC)c2)cc1` .
// result 23.5

// query Report the value of growth obtained on SF-539 CNS for `COc1cc(-c2nc(NC(C)=O)sc2-c2ccnc(NCCNS(=O)(=O)c3ccccc3)n2)ccc1Cl` .
// result 8.69

// query Report the value of growth obtained on SF-539 CNS for `COC(=O)c1c2c(c(C)[n+]([O-])c1C)C(=O)C=CC2=O` .
// result -98.2

// query Report the value of growth obtained on SF-539 CNS for `CC[C@]12C=CCN3CC[C@@]4(c5ccc(OC)cc5N(C)[C@H]4[C@@](O)(C(=O)OC)[C@@H]1OC(=O)CCCN1CCOCC1)[C@@H]32` .
// result 106

// query Report the value of growth obtained on SF-539 CNS for `COc1cccc(OC)c1Oc1c(-c2nc3ccccc3s2)c(C)nn1-c1ccccc1` .
// result 92

// query Report the value of growth obtained on SF-539 CNS for `O=C(Nc1cccnc1Nc1ccc(Cl)cc1)c1cn(Cc2ccc(F)cc2)nn1` .
// result 94.5

// query Report the value of growth obtained on SF-539 CNS for `COc1cc(/C=N/Nc2ccccc2F)cc(OC)c1OC` .
// result 99.3

// query Report the value of growth obtained on SF-539 CNS for `CCN(CC)S(=O)(=O)c1ccc(S(=O)(=O)N2CCC[C@@H](C(=O)N3CCN(C(=O)OC(C)(C)C)CC3)C2)cc1` .
// result 77.7

// query Report the value of growth obtained on SF-539 CNS for `CCCCCCCCn1ccc2cc(NC(=O)Cn3cc(CN4CCOCC4)nn3)ccc21` .
// result 104
